Tested on: Ran GTPase (GTP-bound) - importin-beta complex
method-notes: disruptors of Ran-importin-beta complex formation – biochemical, FRET, CFP-Ran, YFP-importin-beta, homogeneous, primary screen (AID 2216);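 also: 0% = DMSO wells and 100% = Ran loaded with GDP instead of GTP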
run-conditions: cell-free CFP-Ran/YFP-importin-beta FRET ratio; hits give high values; concentration not given here
The campaign covered roughly 300,000 compounds. About 3,300 (1.1%) were called active. Not shown: some 6% with an inconclusive outcome. This is one part of a sample in which actives are shown more often than they occur.
parameter-measured: inhibition (%)
Dear colleague, please return just the value in %, with no unit written.

Guide cases for inhibition, answers given:
substance_smiles=CCOC(=O)N1CCN(Cc2nnc(-c3ccccc3Cl)o2)CC1 parameter_measured=inhibition value_measured=-2.66
substance_smiles=CCCC[C@@H]1CN=C(N)N1CCCC parameter_measured=inhibition value_measured=5.62
substance_smiles=CCOc1ccc(N=Cc2c(O)n(-c3cccc(C)n3)c(=O)c3ccccc23)cc1 parameter_measured=inhibition value_measured=22.9
substance_smiles=Cc1ccc(-n2c(O)c(C=Nc3ccc(S(=O)(=O)Nc4ncccn4)cc3)c3ccccc3c2=O)cc1C parameter_measured=inhibition value_measured=-1.55
substance_smiles=CC(=O)Nc1ccc(NC(=O)CS(=O)(=O)c2cn(CC(=O)N3CCCCC3)c3ccccc23)cc1 parameter_measured=inhibition value_measured=-0.901
substance_smiles=Cn1cnnc1SCc1nnc(-c2ccccc2Br)o1 parameter_measured=inhibition value_measured=2.51
substance_smiles=Cc1ccc(/C=C(\C#N)C(=O)Nc2cccc3ncccc23)o1 parameter_measured=inhibition value_measured=24.4
substance_smiles=Cc1ccc(C(=O)Nc2cccc3ncccc23)cc1[N+](=O)[O-] parameter_measured=inhibition value_measured=-5.75
substance_smiles=CCOc1ccc(-n2c(O)c(/C=N/c3ccnn3Cc3ccncc3)c3ccccc3c2=O)cc1 parameter_measured=inhibition value_measured=0.299

Next up:
For this molecule ( "Nc1cccc2c1C(=O)N(Cc1nnc(-c3ccccc3Br)o1)C2=O" ), measured inhibition is 35.1
